Measured values drawn from paper PMC7619385 for this set.

Readings of Target occupancy Run 1 for the listed compounds
# target_system: NLuc::LmxCLK1 (Leishmania mexicana, UniProt E9AMP2)
# experiment_notes: cell-based
# Format: cell-based
# applied_conditions: 10 µM compound, tracer SV366, promastigotes
metric_name: Target occupancy Run 1 (%)

compound=O=C(/C=C/c1ccc2ccccc2n1)c1ccncc1 obs_value=-10.7
compound=COc1ccc2c(c1)c(C1=C(c3c[nH]c4ccccc34)C(=O)NC1=O)cn2CCCN(C)C obs_value=-11.0
compound=O=C(NCCO)c1cccc(-c2cc(Nc3ccc(OC(F)(F)F)cc3)ncn2)c1 obs_value=-7.9
compound=CNC(=O)c1cc(Oc2ccc(NC(=O)Nc3ccc(Cl)c(C(F)(F)F)c3)c(F)c2)ccn1 obs_value=-4.0
compound=CC(C)n1nc(-c2ccc3oc(N)nc3c2)c2c(N)ncnc21 obs_value=-0.8
compound="CC(C)N(CCC(=O)c1ccc2ccccc2c1)Cc1ccccc1.Cl [ZM 39923 HCl]" obs_value=0.2

====

Readings of ΔTm Average for the listed compounds
# target_system: LmxCLK1 (Leishmania mexicana, UniProt E9AMP2)
# experiment_notes: biochemical
# Assay type: binding
metric_name: ΔTm Average

compound="CNC(=O)c1c(F)cccc1Nc1nc(Nc2cc3c(cc2OC)CCN3C(=O)CN(C)C)nc2[nH]ccc12 [GSK1838705A]" metric_name="ΔTm Average" obs_value=-0.2
compound=CCOc1cc(N2CCC(O)CC2)ccc1Nc1ncc2c(n1)N(C)c1ccccc1C(=O)N2C metric_name="ΔTm Average" obs_value=-0.3
compound=Cc1[nH]c2ccccc2c1C1=C(NCCc2ccc(F)cc2)C(=O)N(C)C1=O metric_name="ΔTm Average" obs_value=-0.2
compound=Cn1cc(-c2ccc3nnc(C(F)(F)c4ccc5ncccc5c4)n3n2)cn1 metric_name="ΔTm Average" obs_value=-0.3
compound=COc1ccc(F)c(F)c1C(=O)c1cnc(NC2CCN(S(C)(=O)=O)CC2)nc1N metric_name="ΔTm Average" obs_value=-0.2
compound=CCO.N#CC(=C(/N)Sc1ccccc1N)/C(C#N)=C(\N)Sc1ccccc1N metric_name="ΔTm Average" obs_value=-0.1
compound=CN([C@@H](Cc1ccc(OS(=O)(=O)c2cccc3cnccc23)cc1)C(=O)N1CCN(c2ccccc2)CC1)S(=O)(=O)c1cccc2cnccc12 metric_name="ΔTm Average" obs_value=-0.3

====

# target_system: UniProtKB E9AMP2
# Sequence (E9AMP2 1-422): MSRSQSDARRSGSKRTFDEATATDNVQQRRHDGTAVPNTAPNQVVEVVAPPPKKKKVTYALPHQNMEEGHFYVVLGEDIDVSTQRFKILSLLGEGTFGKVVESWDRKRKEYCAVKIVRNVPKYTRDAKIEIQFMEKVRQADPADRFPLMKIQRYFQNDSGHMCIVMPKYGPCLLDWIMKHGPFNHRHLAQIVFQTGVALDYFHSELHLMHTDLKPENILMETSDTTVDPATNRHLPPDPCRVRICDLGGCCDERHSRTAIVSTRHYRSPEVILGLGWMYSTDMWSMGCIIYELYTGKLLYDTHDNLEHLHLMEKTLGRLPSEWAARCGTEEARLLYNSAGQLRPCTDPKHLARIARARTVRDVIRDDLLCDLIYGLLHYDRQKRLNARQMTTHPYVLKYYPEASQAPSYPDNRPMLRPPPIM
# experiment_notes: biochemical
# Format: binding
Readings of ΔTm Run 2 for the listed compounds
metric_name: ΔTm Run 2

compound="CN1CCC(c2c(O)cc(O)c3c(=O)cc(-c4ccccc4Cl)oc23)C1CO (centres unmarked) [P276-00]" target_system="UniProtKB E9AMP2" metric_name="ΔTm Run 2" obs_value="0.3 °C"
compound="Nc1ccc(C(=O)Nc2cccc(-c3nc(N4CCOCC4)c4oc5ncccc5c4n3)c2)cn1 [YM201636]" target_system="UniProtKB E9AMP2" metric_name="ΔTm Run 2" obs_value="0 °C"
compound="COc1cc(Nc2ncc(F)c(Nc3ccc4c(n3)NC(=O)C(C)(C)O4)n2)cc(OC)c1OC [R406]" target_system="UniProtKB E9AMP2" metric_name="ΔTm Run 2" obs_value="0.3 °C"
compound="Cc1ccc([N+](=O)[O-])cc1S(=O)(=O)N(C)/N=C/c1cnc2ccc(Br)cn12 [PIK-75]" target_system="UniProtKB E9AMP2" metric_name="ΔTm Run 2" obs_value="0.1 °C"
compound="O=C(/C=C/c1ccc2ccccc2n1)c1ccncc1 [PFK15]" target_system="UniProtKB E9AMP2" metric_name="ΔTm Run 2" obs_value="0.1 °C"
compound="O=C(Cc1ccc(-c2ccc(OCCN3CCOCC3)cc2)cn1)NCc1ccccc1 [KX2-391]" target_system="UniProtKB E9AMP2" metric_name="ΔTm Run 2" obs_value="0 °C"
compound="OCCn1cc(-c2cnc3nnn(Cc4ccc5ncccc5c4)c3n2)cn1 [PF-04217903]" target_system="UniProtKB E9AMP2" metric_name="ΔTm Run 2" obs_value="0.3 °C"
compound="COc1ccc(-c2cc3c(C)nc(N)nc3n([C@H]3CC[C@H](OCCO)CC3)c2=O)cn1 [PF-04691502]" target_system="UniProtKB E9AMP2" metric_name="ΔTm Run 2" obs_value="0.1 °C"
compound="Cn1cc(-c2cnn3c(N)c(Br)c([C@@H]4CCCNC4)nc23)cn1 [MK-8776 (SCH 900776)]" target_system="UniProtKB E9AMP2" metric_name="ΔTm Run 2" obs_value="0 °C"
compound="NC(=O)c1cnc(N[C@@H]2CCCC[C@@H]2N)nc1Nc1cccc(-n2nccn2)c1 [PRT062607 (P505-15)]" target_system="UniProtKB E9AMP2" metric_name="ΔTm Run 2" obs_value="1.3 °C"
compound="CCO.N#CC(=C(/N)Sc1ccccc1N)/C(C#N)=C(\\N)Sc1ccccc1N [U0126-EtOH]" target_system="UniProtKB E9AMP2" metric_name="ΔTm Run 2" obs_value="0.1 °C"
compound="CCc1cc(Nc2nccc(-c3c(-c4ccc(OC)c(C(=O)Nc5c(F)cccc5F)c4)nc4ccccn34)n2)c(OC)cc1N1CCC(N2CCN(S(C)(=O)=O)CC2)CC1 [GSK1904529A]" target_system="UniProtKB E9AMP2" metric_name="ΔTm Run 2" obs_value="0.1 °C"
compound="Nc1nc(N)c2nc(-c3cccc(O)c3)c(-c3cccc(O)c3)nc2n1 [TG100-115]" target_system="UniProtKB E9AMP2" metric_name="ΔTm Run 2" obs_value="1.3 °C"
compound="FC(F)(F)c1ccc(/C=C/c2nc(COc3ccc(CCCCn4ccnn4)cc3)co2)cc1 [Mubritinib (TAK 165)]" target_system="UniProtKB E9AMP2" metric_name="ΔTm Run 2" obs_value="0 °C"
